Listing of entries alongside the reported 48 h IGC50 (-log10 mol/L).
Test system: Tetrahymena pyriformis
experiment-description: 48 h IGC50 (-log10 mol/L); higher = more toxic
recorded-metric: 48 h IGC50 (-log10 mol/L)

# smiles-representation, recorded-metric, meas-value
data = [
    ("CC(=O)c1ccc(C#N)cc1", "48 h IGC50 (-log10 mol/L)", 2.63),
    ("CCCCCC(N)=O", "48 h IGC50 (-log10 mol/L)", 2.09),
    ("S=C=NC(c1ccccc1)c1ccccc1", "48 h IGC50 (-log10 mol/L)", 6.05),
    ("O=Cc1cc(Cl)ccc1O", "48 h IGC50 (-log10 mol/L)", 4.01),
    ("Cc1ccncc1", "48 h IGC50 (-log10 mol/L)", 2.12),
    ("Cc1cc(O)c([N+](=O)[O-])cc1Cl", "48 h IGC50 (-log10 mol/L)", 4.63),
    ("CC(C)(C)c1ccc(Br)cc1", "48 h IGC50 (-log10 mol/L)", 3.75),
    ("C=COC(=O)C=C", "48 h IGC50 (-log10 mol/L)", 4.42),
    ("Cc1cccc(C)c1N=C=S", "48 h IGC50 (-log10 mol/L)", 4.5),
    ("N#CCCCCC#N", "48 h IGC50 (-log10 mol/L)", 1.46),
    ("NC(=O)c1ccccc1", "48 h IGC50 (-log10 mol/L)", 2.09),
    ("Nc1ccc([N+](=O)[O-])cc1[N+](=O)[O-]", "48 h IGC50 (-log10 mol/L)", 3.72),
    ("N#CCc1ccc(Br)cc1", "48 h IGC50 (-log10 mol/L)", 3.6),
    ("O=C(O)CCCCCBr", "48 h IGC50 (-log10 mol/L)", 3.03),
    ("CCCCCC(=O)OCC", "48 h IGC50 (-log10 mol/L)", 3.06),
    ("CC(C)(CO)CCl", "48 h IGC50 (-log10 mol/L)", 2.22),
    ("COc1cc(Cl)cc(Cl)c1", "48 h IGC50 (-log10 mol/L)", 3.93),
    ("Cc1ccccc1C(=O)c1ccccc1", "48 h IGC50 (-log10 mol/L)", 4.37),
    ("Clc1cccc(Br)c1Cl", "48 h IGC50 (-log10 mol/L)", 4.3),
    ("c1ccnnc1", "48 h IGC50 (-log10 mol/L)", 1.59),
    ("CC#CCCO", "48 h IGC50 (-log10 mol/L)", 1.82),
    ("CC(C)COC(=O)c1ccccc1", "48 h IGC50 (-log10 mol/L)", 3.98),
    ("C=CCN=C=S", "48 h IGC50 (-log10 mol/L)", 5.06),
    ("CCC#CCCO", "48 h IGC50 (-log10 mol/L)", 1.98),
    ("O=C(O)c1cc(Br)ccc1Br", "48 h IGC50 (-log10 mol/L)", 2.69),
    ("C#CCN(C)C", "48 h IGC50 (-log10 mol/L)", 1.85),
    ("O=[N+]([O-])c1cccc(-c2ccccc2)c1", "48 h IGC50 (-log10 mol/L)", 4.57),
    ("CC(C)(O)CCc1ccccc1", "48 h IGC50 (-log10 mol/L)", 2.93),
    ("Nc1ccc(C(=O)c2ccccc2)cc1", "48 h IGC50 (-log10 mol/L)", 3.68),
    ("N#Cc1cc([N+](=O)[O-])c(Cl)c([N+](=O)[O-])c1", "48 h IGC50 (-log10 mol/L)", 5.66),
    ("N#C/C=C/c1ccccc1", "48 h IGC50 (-log10 mol/L)", 3.16),
    ("CCCNCCO", "48 h IGC50 (-log10 mol/L)", 1.32),
    ("O=[N+]([O-])c1cccc(Cl)c1", "48 h IGC50 (-log10 mol/L)", 3.73),
    ("CCC(=O)c1ccco1", "48 h IGC50 (-log10 mol/L)", 2.23),
]

----------
Tested on: Tetrahymena pyriformis
experiment-description: 48 h IGC50 (-log10 mol/L); higher = more toxic

# compound, 48 h IGC50 (-log10 mol/L)
measured = [
    ("O=C1CCCCC1", 1.77),
    ("CCCCCC(=O)CC(C)=O", 3.51),
    ("CCS(=O)(=O)CC", 1.16),
    ("O=[N+]([O-])c1ccncc1", 3.41),
    ("Cc1cc(Cl)ccc1O", 3.7),
    ("O=C1CCC(=O)CC1", 1.33),
    ("CC(C)(C)c1cc(C(C)(C)C)c(O)c(C(C)(C)C)c1", 3.36),
    ("COCC(C)N (stereo unspecified)", 2.17),
    ("OC/C=C\\CO", 0.851),
    ("CC(C)(C)C(=O)O", 2.75),
    ("CCc1cccc(CC)c1N", 3.31),
    ("O=Cc1ccc2c(c1)Cc1ccccc1-2", 4.5),
    ("CCOc1ccc(C(=O)OC)cc1", 3.58),
    ("Cc1ccc([N+](=O)[O-])cc1O", 3.66),
    ("O=[N+]([O-])c1ccc2ccccc2c1O", 4.36),
    ("COC(=O)CC#N", 1.66),
]

----------
Tested on: Pimephales promelas
experiment-description: 96 h LC50 (-log10 mol/L); higher = more toxic

# smiles-representation, study-system, 96 h LC50 (-log10 mol/L)
rows = [
    ("O=C(O)[C@@H]1[C@H](C(=O)O)[C@H]2CC[C@@H]1O2", "Pimephales promelas", 4.08),
    ("ClCC(Cl)CCl", "Pimephales promelas", 3.41),
    ("Nc1ccc(Cl)c(Cl)c1Cl", "Pimephales promelas", 4.74),
    ("CCNc1nc(Cl)nc(NC(C)C)n1", "Pimephales promelas", 4.16),
    ("CC(=O)OC(C)(C)C", "Pimephales promelas", 2.55),
    ("c1ccc(-c2ccncc2)cc1", "Pimephales promelas", 3.98),
    ("Clc1cccc(Cl)c1", "Pimephales promelas", 4.27),
    ("CCOP(=S)(OCC)Oc1nc(Cl)c(Cl)cc1Cl", "Pimephales promelas", 6.36),
    ("CC(C)(c1cc(Br)c(O)c(Br)c1)c1cc(Br)c(O)c(Br)c1", "Pimephales promelas", 5.83),
    ("NNC(N)=S", "Pimephales promelas", 3.64),
    ("COC(=O)c1ccc(Cl)cc1[N+](=O)[O-]", "Pimephales promelas", 3.9),
    ("COC(=O)c1ccc([N+](=O)[O-])cc1", "Pimephales promelas", 3.88),
    ("COc1ccc(C(c2ccc(OC)cc2)C(Cl)(Cl)Cl)cc1", "Pimephales promelas", 7.61),
]

----------
Tested on: Pimephales promelas
experiment-description: 96 h LC50 (-log10 mol/L); higher = more toxic
Classify as follows. Reported 96 h LC50 (-log10 mol/L) greater than or equal to 3: YES. Reported 96 h LC50 (-log10 mol/L) below: NO.

# compound, label-value
data = [
    ("O=Cc1ccc([N+](=O)[O-])cc1", "YES"),
    ("OC(C(F)(F)F)C(F)(F)F", "NO"),
    ("Nc1ccc(F)c(C(F)(F)F)c1", "YES"),
    ("CCCCCCCBr", "YES"),
    ("O=[N+]([O-])c1ccc(O)cc1C(F)(F)F", "YES"),
    ("Oc1c(Br)cc(Br)cc1Br", "YES"),
    ("CCOC(=O)c1ccccc1O", "YES"),
    ("O=C(Nc1ccc(Cl)cc1)Nc1ccc(Cl)c(Cl)c1", "YES"),
    ("Cc1c([N+](=O)[O-])ccc([N+](=O)[O-])c1N", "YES"),
    ("O=[N+]([O-])c1cccc2ccccc12", "YES"),
    ("CC(=O)O", "NO"),
    ("O=Cc1cccc(Oc2ccc(Cl)c(Cl)c2)c1", "YES"),
    ("N#Cc1ccc([N+](=O)[O-])cc1", "YES"),
    ("S=c1[nH]c2cc(Cl)ccc2s1", "YES"),
    ("C#CCCO", "YES"),
    ("Cc1ccc(O)cc1", "YES"),
    ("CCCCOC(=O)c1ccccc1C(=O)OCCCC", "YES"),
    ("COP(=O)(OC)C(O)C(Cl)(Cl)Cl (stereo not drawn)", "YES"),
    ("Cc1cc([N+](=O)[O-])ccc1N", "YES"),
    ("OCCO", "NO"),
    ("CC(C)=C1C=C2CC[C@@H]3[C@](C)(CCC[C@@]3(C)C(=O)O)[C@H]2CC1", "YES"),
    ("N#CCCCCCCC#N", "NO"),
    ("CC12CCC(CC1)C(C)(C)O2", "YES"),
    ("CNC(=O)ON=C(SC)C(=O)N(C)C", "YES"),
    ("Cc1c(Cl)cc(C(C)(C)C)c(O)c1C(=O)Nc1ccc([N+](=O)[O-])cc1Cl", "YES"),
    ("Brc1ccc(Br)cc1", "YES"),
    ("O=c1cc(-c2ccccc2)oc2ccccc12", "YES"),
    ("CCCCCCCCn1sccc1=O", "YES"),
    ("CCc1ccccn1", "NO"),
    ("O[C@@H]1CCCC[C@H]1c1ccccc1", "YES"),
    ("ON=C1CCCCC1", "NO"),
    ("CC(C)SSC(C)C", "YES"),
    ("CCCCOCC(C)OC(=O)C(C)Oc1cc(Cl)c(Cl)cc1Cl (stereo not drawn)", "YES"),
    ("Cc1ccc(S(=O)(=O)n2ccnc2)cc1", "YES"),
    ("COC(=O)c1ccc(Cl)cc1", "YES"),
    ("CCC(C)(C)c1ccc(O)cc1", "YES"),
    ("CCCCCCC(C)N (stereo not drawn)", "YES"),
    ("CC(=O)CC(=O)c1ccccc1", "YES"),
    ("Oc1ccc(Cl)cc1O", "YES"),
    ("CCCCC=O", "YES"),
    ("CN(C)N=O", "NO"),
    ("S=c1[nH]c2ccccc2s1", "YES"),
    ("CC1CNCCN1 (stereo not drawn)", "NO"),
    ("Brc1ccccc1", "YES"),
    ("CC1(C)OCC(CO)O1 (stereo not drawn)", "NO"),
    ("CCC(C)C(C)C=O (stereo not drawn)", "YES"),
    ("O=C(O)CNCP(=O)(O)O", "YES"),
    ("CC(=O)C(C)CN(C)C (stereo not drawn)", "YES"),
    ("CC(C)(C)SSC(C)(C)C", "YES"),
    ("Cc1ccccn1", "NO"),
    ("OCC(Br)CBr (stereo not drawn)", "YES"),
    ("CCOC(=O)[C@H](O)[C@@H](O)C(=O)OCC", "NO"),
    ("Cc1cocn1", "NO"),
    ("CC(=O)Cl", "YES"),
    ("C=C(C)C(=C)C", "YES"),
    ("O=C(Oc1ccccc1)c1ccccc1C(=O)Oc1ccccc1", "YES"),
    ("COC(=O)c1cc(Cl)ccc1Cl", "YES"),
    ("Cc1cc(O)c([N+](=O)[O-])cc1[N+](=O)[O-]", "YES"),
    ("CCOP(=S)(OCC)Oc1cc(C)nc(C(C)C)n1", "YES"),
    ("CC(C)(C)CCN", "NO"),
    ("Clc1ccc(C(c2ccc(Cl)cc2)C(Cl)(Cl)Cl)cc1", "YES"),
]

Just for reference, EPA's aquatic toxicity sets is where these values come from.
